The values you see were collected from ChEMBL document CHEMBL1130473.

For each of the compounds below, state its MIC.
# Test system: Brachyspira hyodysenteriae
# Assay Method Text: Compound was tested for minimum inhibitory concentration against Serpulina hyodysenteriae
# Type: functional
Give just the numeric value; mg/L need not be written.

Q: Brachyspira hyodysenteriae / MIC / `C=CCOc1cc2ccc(C(=O)N[C@@H]3[C@H](O)[C@@H](O)[C@H]4OCO[C@H]4[C@@H]3O)cc2cc1O` : value?
Result: 50

Q: Same read-out for `C=CCOc1cc2c(cc1O)C=C(C(=O)N[C@@H]1[C@H](O)[C@@H](O)[C@H]3OCO[C@H]3[C@@H]1O)CCC2` ?
Result: 25
